Exercise: for every item that follows, state its recorded pKi.
Target: STAT5a (Homo sapiens)
Sequence (P42229 1-794): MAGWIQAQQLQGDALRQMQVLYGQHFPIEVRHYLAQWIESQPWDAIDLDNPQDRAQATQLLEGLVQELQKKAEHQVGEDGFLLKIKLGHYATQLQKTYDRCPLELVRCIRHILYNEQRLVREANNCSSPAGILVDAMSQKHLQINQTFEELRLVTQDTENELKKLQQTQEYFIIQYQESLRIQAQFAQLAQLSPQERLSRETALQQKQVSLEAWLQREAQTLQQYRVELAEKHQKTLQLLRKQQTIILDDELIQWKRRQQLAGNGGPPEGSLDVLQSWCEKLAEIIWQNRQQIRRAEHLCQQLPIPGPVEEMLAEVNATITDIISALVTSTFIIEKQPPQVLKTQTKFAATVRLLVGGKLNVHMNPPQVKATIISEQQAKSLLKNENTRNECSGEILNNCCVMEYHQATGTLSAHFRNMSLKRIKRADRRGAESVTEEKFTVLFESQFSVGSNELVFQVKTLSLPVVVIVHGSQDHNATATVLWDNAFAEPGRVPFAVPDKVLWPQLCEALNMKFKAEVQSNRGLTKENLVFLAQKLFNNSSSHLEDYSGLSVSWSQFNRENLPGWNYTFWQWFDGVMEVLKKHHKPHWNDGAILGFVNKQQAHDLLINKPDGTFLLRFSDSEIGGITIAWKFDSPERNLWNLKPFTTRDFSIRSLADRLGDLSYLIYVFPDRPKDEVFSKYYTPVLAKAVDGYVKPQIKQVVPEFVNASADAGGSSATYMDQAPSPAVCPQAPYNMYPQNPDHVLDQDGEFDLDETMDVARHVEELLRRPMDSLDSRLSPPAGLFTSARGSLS
Numbers only, as −log10 of the molar value.

Give one value of pKi per listed compound.
1. O=P(O)(O)Oc1ccc(-c2cccs2)cc1
2. O=P(O)(O)Oc1ccc(-c2ccsc2)cc1
3. O=P(O)(O)Oc1ccc(-c2nccs2)cc1
4. O=P(O)(O)Oc1ccc2c(c1)oc1ccccc12

output:
1. 5.14
2. 4.70
3. 4.21
4. 4.57

Value sought for every listed compound: pKi.
1. Cc1cc(-c2ccc(OP(=O)(O)O)c(F)c2)cs1
2. O=P(O)(O)Oc1ccc2c(c1)Cc1ccccc1-2
3. O=P(O)(O)Oc1ccc(-c2cccc3ccccc23)cc1

output:
[4.85, 4.68, 5.40]

* * *

Record form. Attribute: IC50. Fill in for each entry.
Molecular target: STAT1 (Homo sapiens, UniProt P42224)
Experiment: Competitive fluorescence polarization (FP) assay, STAT1
Assay type: binding
Conditions: 80-92 nM STAT1, 10 nM tracer peptide
Give bare numbers, in µM.

O=P(O)(O)Oc1ccc(-c2cccc3ccccc23)cc1; 38
O=P(O)(O)Oc1ccc(-c2ccsc2)cc1; 20.2
O=P(O)(O)Oc1ccc2c(c1)oc1ccccc12; 34.3

Each molecule below has a recorded value; state its IC50.
1. O=P(O)(O)Oc1ccc2c(c1)Cc1ccccc1-2
2. O=P(O)(O)Oc1ccc(-c2cccs2)cc1

output:
14.3
19.5

Dear colleague, could you send me IC50 for each of the items below? Thanks.
1. Cc1cc(-c2ccc(OP(=O)(O)O)c(F)c2)cs1
2. O=P(O)(O)Oc1ccc(-c2nccs2)cc1

output:
1: 9; 2: 83

* * *

Target: STAT4 SH2 domain (Homo sapiens, UniProt Q14765)
Sequence (Q14765 whole entry, the tested form may be a part): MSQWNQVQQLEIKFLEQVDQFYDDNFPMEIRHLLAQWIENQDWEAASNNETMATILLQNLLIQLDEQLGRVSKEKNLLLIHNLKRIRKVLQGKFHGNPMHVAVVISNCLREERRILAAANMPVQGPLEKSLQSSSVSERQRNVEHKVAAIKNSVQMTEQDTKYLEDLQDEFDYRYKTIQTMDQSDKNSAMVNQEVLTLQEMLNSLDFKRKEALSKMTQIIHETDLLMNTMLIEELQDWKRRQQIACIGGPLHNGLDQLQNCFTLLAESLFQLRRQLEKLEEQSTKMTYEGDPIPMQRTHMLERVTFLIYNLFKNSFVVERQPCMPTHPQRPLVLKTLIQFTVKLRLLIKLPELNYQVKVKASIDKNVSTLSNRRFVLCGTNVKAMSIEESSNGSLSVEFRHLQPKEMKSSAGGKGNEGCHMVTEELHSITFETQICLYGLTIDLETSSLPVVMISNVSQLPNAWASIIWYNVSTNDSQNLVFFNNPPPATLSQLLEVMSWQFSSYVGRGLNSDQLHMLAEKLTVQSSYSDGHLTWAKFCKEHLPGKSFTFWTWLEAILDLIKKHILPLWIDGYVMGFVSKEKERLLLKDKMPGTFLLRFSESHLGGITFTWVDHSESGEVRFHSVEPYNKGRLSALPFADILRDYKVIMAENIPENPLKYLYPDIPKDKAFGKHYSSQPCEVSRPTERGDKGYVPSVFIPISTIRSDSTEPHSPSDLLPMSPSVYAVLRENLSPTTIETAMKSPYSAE
Value type: pKi
Give bare numbers, as −log10 of the molar value.

Example entries and their recorded answers appear below.
O=P(O)(O)Oc1ccc(-c2cccs2)cc1F [8e]; 6.52
O=P(O)(O)Oc1ccc2c(c1)oc1ccccc12 [compound 12]; 6.15
O=P(O)(O)Oc1ccc(-c2ccsc2)cc1 [8a]; 6.25
O=P(O)(O)Oc1ccc(-c2nccs2)cc1 [8c]; 5.39
O=P(O)(O)Oc1ccc2c(c1)Cc1ccccc1-2 [compound 11]; 6.21

Working through the 3 molecules below one at a time, give pKi for each.
1. O=P(O)(O)Oc1ccc(-c2cccs2)cc1 [8b]
2. Cc1cc(-c2ccc(OP(=O)(O)O)c(F)c2)cs1 [8f]
3. O=P(O)(O)Oc1ccc(-c2ccsc2)cc1F [8d]

output:
[6.30, 6.74, 6.59]

* * *

The following compounds have recorded IC50 on STAT6 (Homo sapiens).
Sequence (P42226 whole entry, species assumed): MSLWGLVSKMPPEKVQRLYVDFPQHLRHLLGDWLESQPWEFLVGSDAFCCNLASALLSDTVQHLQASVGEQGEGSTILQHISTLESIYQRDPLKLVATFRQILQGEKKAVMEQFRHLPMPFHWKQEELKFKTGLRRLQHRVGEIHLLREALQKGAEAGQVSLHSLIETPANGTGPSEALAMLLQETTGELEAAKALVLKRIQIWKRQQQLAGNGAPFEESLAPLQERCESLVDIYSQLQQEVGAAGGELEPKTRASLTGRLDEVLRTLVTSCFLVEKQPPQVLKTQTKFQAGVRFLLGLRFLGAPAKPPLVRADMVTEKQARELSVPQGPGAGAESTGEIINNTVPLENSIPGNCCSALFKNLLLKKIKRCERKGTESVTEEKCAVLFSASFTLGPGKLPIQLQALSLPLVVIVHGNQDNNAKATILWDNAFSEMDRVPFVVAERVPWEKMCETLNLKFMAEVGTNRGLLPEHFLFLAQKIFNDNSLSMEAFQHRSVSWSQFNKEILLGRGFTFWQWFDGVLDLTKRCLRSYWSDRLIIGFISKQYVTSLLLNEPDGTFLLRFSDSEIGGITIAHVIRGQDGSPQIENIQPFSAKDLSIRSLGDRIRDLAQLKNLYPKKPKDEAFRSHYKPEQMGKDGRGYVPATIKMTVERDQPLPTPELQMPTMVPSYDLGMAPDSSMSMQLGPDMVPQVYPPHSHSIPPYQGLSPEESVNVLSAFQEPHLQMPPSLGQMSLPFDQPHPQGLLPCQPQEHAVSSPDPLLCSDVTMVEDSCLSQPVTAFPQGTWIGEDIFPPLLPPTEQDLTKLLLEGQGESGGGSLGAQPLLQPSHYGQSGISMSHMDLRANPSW
Numbers only, in µM.

Illustrative cases are given below, each with its answer.
O=P(O)(O)Oc1ccc2c(c1)oc1ccccc12; 53
Cc1cc(-c2ccc(OP(=O)(O)O)c(F)c2)cs1; 34
O=P(O)(O)Oc1ccc(-c2nccs2)cc1; 112
O=P(O)(O)Oc1ccc2c(c1)Cc1ccccc1-2; 23
O=P(O)(O)Oc1ccc(-c2cccs2)cc1; 19

Please state IC50 for every compound in the list that follows.
1. O=P(O)(O)Oc1ccc(-c2cccc3ccccc23)cc1
2. O=P(O)(O)Oc1ccc(-c2ccsc2)cc1

output:
19.1
15.8

* * *

Target: STAT1 (Homo sapiens, UniProt P42224)
Sequence (P42224 1-750): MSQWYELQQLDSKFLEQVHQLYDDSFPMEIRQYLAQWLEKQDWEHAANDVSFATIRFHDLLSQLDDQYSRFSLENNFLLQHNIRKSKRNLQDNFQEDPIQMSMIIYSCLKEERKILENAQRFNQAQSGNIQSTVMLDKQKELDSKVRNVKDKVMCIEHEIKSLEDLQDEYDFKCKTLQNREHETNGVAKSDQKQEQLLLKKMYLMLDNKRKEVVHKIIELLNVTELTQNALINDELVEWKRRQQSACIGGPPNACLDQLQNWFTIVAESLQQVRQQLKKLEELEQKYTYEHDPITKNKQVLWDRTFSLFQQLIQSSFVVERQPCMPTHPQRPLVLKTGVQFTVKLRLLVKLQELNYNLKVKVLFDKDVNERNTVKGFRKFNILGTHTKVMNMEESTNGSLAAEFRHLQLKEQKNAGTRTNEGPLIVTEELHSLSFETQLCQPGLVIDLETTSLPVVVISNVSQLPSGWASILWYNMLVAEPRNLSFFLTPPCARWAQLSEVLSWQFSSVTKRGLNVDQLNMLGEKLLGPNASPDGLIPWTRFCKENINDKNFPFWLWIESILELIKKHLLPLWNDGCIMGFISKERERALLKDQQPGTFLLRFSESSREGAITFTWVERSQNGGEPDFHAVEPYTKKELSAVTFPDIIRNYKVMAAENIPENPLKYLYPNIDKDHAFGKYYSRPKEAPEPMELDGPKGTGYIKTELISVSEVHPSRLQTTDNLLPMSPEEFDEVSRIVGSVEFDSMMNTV
I'd be grateful if you could share measured pKi for these entries.
Give bare numbers, as −log10 of the molar value.

O=P(O)(O)Oc1ccc(-c2cccs2)cc1 [8b]; 5.05
O=P(O)(O)Oc1ccc(-c2nccs2)cc1 [8c]; 4.42
O=P(O)(O)Oc1ccc(-c2ccsc2)cc1 [8a]; 5.04
Cc1cc(-c2ccc(OP(=O)(O)O)c(F)c2)cs1 [8f]; 5.36
O=P(O)(O)Oc1ccc(-c2cccc3ccccc23)cc1 [compound 10]; 4.77

Quick one: give me pKi for each item below, same order please.
1. O=P(O)(O)Oc1ccc2c(c1)Cc1ccccc1-2 [compound 11]
2. O=P(O)(O)Oc1ccc2c(c1)oc1ccccc12 [compound 12]

output:
[5.19, 4.80]

* * *

Consider the following compounds; for each one, report its pKi.
Biological target: STAT5b (Homo sapiens, UniProt P51692)
Sequence (P51692 1-787): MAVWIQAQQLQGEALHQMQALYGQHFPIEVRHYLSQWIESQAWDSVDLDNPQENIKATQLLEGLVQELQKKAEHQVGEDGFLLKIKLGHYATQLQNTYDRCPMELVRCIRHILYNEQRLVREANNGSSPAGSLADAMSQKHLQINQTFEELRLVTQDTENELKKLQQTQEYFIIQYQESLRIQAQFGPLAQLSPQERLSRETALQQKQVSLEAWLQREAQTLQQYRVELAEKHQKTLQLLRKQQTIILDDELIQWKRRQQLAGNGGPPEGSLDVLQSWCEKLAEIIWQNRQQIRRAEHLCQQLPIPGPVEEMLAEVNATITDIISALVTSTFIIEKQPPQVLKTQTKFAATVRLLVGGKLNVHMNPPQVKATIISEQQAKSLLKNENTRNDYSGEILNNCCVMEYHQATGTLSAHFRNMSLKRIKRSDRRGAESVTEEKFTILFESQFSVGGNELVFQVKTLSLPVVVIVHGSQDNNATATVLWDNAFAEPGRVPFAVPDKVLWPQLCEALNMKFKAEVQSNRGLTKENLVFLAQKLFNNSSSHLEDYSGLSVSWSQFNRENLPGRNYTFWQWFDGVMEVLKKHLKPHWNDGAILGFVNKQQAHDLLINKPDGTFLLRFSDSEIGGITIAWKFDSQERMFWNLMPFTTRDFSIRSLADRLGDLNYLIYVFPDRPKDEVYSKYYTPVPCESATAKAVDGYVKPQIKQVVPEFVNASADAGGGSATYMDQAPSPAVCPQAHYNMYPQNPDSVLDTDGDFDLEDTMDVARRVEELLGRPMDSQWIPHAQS
One number for each entry, as −log10 of the molar value.

Examples from the recorded data:
O=P(O)(O)Oc1ccc(-c2cccs2)cc1 [8b]; 5.09
Cc1cc(-c2ccc(OP(=O)(O)O)c(F)c2)cs1 [8f]; 4.74
O=P(O)(O)Oc1ccc2c(c1)Cc1ccccc1-2 [compound 11]; 4.31
O=P(O)(O)Oc1ccc(-c2ccsc2)cc1 [8a]; 4.64

Turning now to a further record.
Record O=P(O)(O)Oc1ccc(-c2cccc3ccccc23)cc1 [compound 10] ; system STAT5b (Homo sapiens, UniProt P51692); pKi = 4.37
